System: HL-60
ASSAY INFO: Photocytotoxicity against human HL60 cells assessed as growth inhibition at 1.25 J/cm'2 irradiation for 30 mins followed by drug treated for 72 hrs by MTT assay
Format: functional
RUN CONDITIONS: HL-60, light or radiation study
PARAMETER: GI50 (µM)
Could you give me the number in µM? Just the number is fine.

[[record]]
compound_string = "COc1nc2c(cc1S(=O)(=O)c1ccccc1)CCc1c-2cnn1-c1ccc(Cl)cc1"
subject_of_test = "HL-60"
parameter = "GI50"
unit_string = "µM"
assay_result = 4.03


# ---- query compound ----
Challenge: Lookup: GI50 / HL-60 / COc1ccc(-n2ncc3c2ccc2cc(S(=O)(=O)c4ccccc4)c(=O)n(C)c23)cc1
Response given: 0.61

---

Documented GI50 across a set of molecules
Test system: Jurkat
ASSAY INFO: Photocytotoxicity against human Jurkat cells assessed as growth inhibition at 2.5 J/cm'2 irradiation for 30 mins followed by drug treated for 72 hrs by MTT assay
Format: functional
RUN CONDITIONS: light or radiation study

// worked examples, GI50 included
[[record]]
compound_string = "COc1nc2c(cc1S(=O)(=O)c1ccccc1)CCc1c-2cnn1-c1ccccc1"
assay_result = "710 nM"

[[record]]
compound_string = "COc1ccc(-n2ncc3c4nc(OC)c(S(=O)(=O)c5ccccc5)cc4ccc32)cc1"
assay_result = "540 nM"

[[record]]
compound_string = "COc1ccc(-n2ncc3c2CCc2cc(S(=O)(=O)c4ccccc4)c(=O)n(C)c2-3)cc1"
assay_result = "6680 nM"


Challenge: I would be grateful if you could share the reported GI50 for Cn1c(=O)c(S(=O)(=O)c2ccccc2)cc2ccc3c(cnn3-c3ccc(Cl)cc3)c21 .
Response given: 100 nM

Challenge: Okay, and COc1nc2c(ccc3c2cnn3-c2ccc(Cl)cc2)cc1S(=O)(=O)c1ccccc1 ?
Response given: 960 nM

---

Documented GI50 across a set of compounds
System: HL-60
ASSAY INFO: Photocytotoxicity against human HL60 cells assessed as growth inhibition at 1.25 J/cm'2 irradiation for 30 mins followed by drug treated for 72 hrs by MTT assay
Assay type: functional
RUN CONDITIONS: HL-60, light or radiation study
Could you give me the number in µM? Just the number is fine.

[[record]]
compound_string = "COc1nc2c(ccc3c2cnn3-c2ccc(Cl)cc2)cc1S(=O)(=O)c1ccccc1"
parameter = "GI50"
assay_result = 2.16


# ---- query compound ----
Challenge: I would be grateful if you could share the reported GI50 for CCOC(=O)c1cc2c(nc1OC)-c1cnn(-c3ccc(OC)cc3)c1CC2 .
Response given: 7.71

---

Documented GI50 across a set of molecules
Test system: HL-60
ASSAY INFO: Cytotoxicity against human HL60 cells assessed as growth inhibition after 72 hrs by MTT assay
Type: functional
RUN CONDITIONS: HL-60, 72 h

// worked examples, GI50 included
[[record]]
compound_string = "CCOC(=O)c1cc2c([nH]c1=O)-c1cnn(-c3ccc(Cl)cc3)c1CC2"
subject_of_test = "HL-60"
parameter = "GI50"
assay_result = "> 20 µM"

[[record]]
compound_string = "O=c1c(S(=O)(=O)c2ccccc2)cc2c(n1Cc1ccccc1)-c1cnn(-c3ccc(Cl)cc3)c1CC2"
subject_of_test = "HL-60"
parameter = "GI50"
assay_result = "11.6 µM"

[[record]]
compound_string = "COc1ccc(-n2ncc3c2CCc2cc(S(=O)(=O)c4ccccc4)c(OC)nc2-3)cc1"
subject_of_test = "HL-60"
parameter = "GI50"
assay_result = "> 20 µM"

[[record]]
compound_string = "COc1nc2c(cc1S(=O)(=O)c1ccccc1)CCc1c-2cnn1Cc1ccccc1"
subject_of_test = "HL-60"
parameter = "GI50"
assay_result = "6.1 µM"

[[record]]
compound_string = "COc1nc2c(cc1S(=O)(=O)c1ccccc1)CCc1c-2cnn1-c1cccc(Cl)c1"
subject_of_test = "HL-60"
parameter = "GI50"
assay_result = "> 20 µM"

[[record]]
compound_string = "O=c1[nH]c2c(cc1S(=O)(=O)c1ccccc1)CCc1c-2cnn1-c1cccc(Cl)c1"
subject_of_test = "HL-60"
parameter = "GI50"
assay_result = "> 20 µM"


Challenge: I would be grateful if you could share the reported GI50 for COc1nc2c(cc1S(=O)(=O)c1ccccc1)CCc1c-2cnn1-c1ccc(Cl)cc1 .
Response given: > 20 µM

Challenge: Okay, and O=c1[nH]c2c(cc1S(=O)(=O)c1ccccc1)CCc1c-2cnn1-c1ccc(Cl)cc1 ?
Response given: > 20 µM

Challenge: Okay, and COc1nc2c(cc1S(=O)(=O)c1ccccc1)CCc1c-2cnn1-c1ccccc1 ?
Response given: > 20 µM
